From: paper PMC5920042

Assay: 28-day repeat oral dose toxicity study, toxicokinetics
Format: in vivo, Beagle dogs
Settings: male, Beagle, dog, plasma, po, 10 mg/kg, KH176 10 mg/kg/dose BID oral, M, Day 1, plasma, read-out: Cmax
Measured attribute: Cmax (ng/mL)

- Cc1c(C)c2c(c(C)c1O)CC[C@@](C)(C(=O)N[C@@H]1CCCNC1)O2.Cl: 2030

----------
Experiment: 28-day repeat oral dose toxicity study, toxicokinetics
Type: in vivo, Sprague Dawley rats
Conditions: female, Sprague Dawley, rat, plasma, po, 75 mg/kg, KH176 75 mg/kg/dose BID oral, F, Day 28, plasma, read-out: AUC0–24 h
Measured attribute: AUC(0-t) (ng·h/mL)

* Cc1c(C)c2c(c(C)c1O)CC[C@@](C)(C(=O)N[C@@H]1CCCNC1)O2.Cl | 76900
